# Tested on: Human immunodeficiency virus 1
# RUN_DESCRIPTION: Antiviral activity against 0.1 MOI of Human immunodeficiency virus 1 LAI infected human PBM cells after 2 to 3 hr by scintillation counting analysis in presence of [3H]thymidine-5'-triphosphate
# Type: functional, organism-based
# STUDY_CONDITIONS: PBMC

| COMPOUND | VALUE_UNIT | RELATION_SIGN | EC90 |
| --- | --- | --- | --- |
| Ic1ccc(C2=NNC(c3ccc(N4CCCCC4)cc3)C2)s1 (stereo not given) | µM | = | 43.6 |
| Cc1cc(C2=NNC(c3ccc(N4CCCCC4)cc3)C2)c(C)s1 (stereo not given) | µM | = | 29.8 |
| Brc1ccc(C2=NNC(c3ccc(N4CCCCC4)cc3)C2)s1 (stereo not given) | µM | = | 33.3 |
| Cc1ccc(C(=O)/C=C/c2ccc(N3CCCCC3)cc2)s1 | µM | = | 30.9 |
| Clc1cc(C2=NNC(c3ccc(N4CCCCC4)cc3)C2)c(Cl)s1 (stereo not given) | µM | > | 100 |
| O=C(/C=C/c1ccc(N2CCCCC2)cc1)c1ccc(Cl)s1 | µM | ≥ | 100 |
| O=C(/C=C/c1ccc(N2CCCCC2)cc1)c1cccs1 | µM | ≥ | 100 |
| Cc1ccc(C2=NNC(c3ccc(N4CCCCC4)cc3)C2)s1 (stereo not given) | µM | = | 52.9 |
| Clc1ccsc1C1=NNC(c2ccc(N3CCCCC3)cc2)C1 (stereo not given) | µM | = | 13.1 |
| c1cc(C2=NNC(c3ccc(N4CCCCC4)cc3)C2)cs1 (stereo not given) | µM | ≥ | 100 |
| Cc1ccsc1C(=O)/C=C/c1ccc(N2CCCCC2)cc1 | µM | = | 19.6 |
| Brc1ccsc1C1=NNC(c2ccc(N3CCCCC3)cc2)C1 (stereo not given) | µM | = | 30.4 |
| O=C(/C=C/c1ccc(N2CCCCC2)cc1)c1cc(Cl)sc1Cl | µM | = | 24.7 |
| O=C(/C=C/c1ccc(N2CCCCC2)cc1)c1ccc(Br)s1 | µM | ≥ | 100 |
| Cc1csc(C(=O)/C=C/c2ccc(N3CCCCC3)cc2)c1 | µM | = | 23.1 |
| O=C(/C=C/c1ccc(N2CCCCC2)cc1)c1sccc1Cl | µM | = | 29 |
| Cc1csc(C2=NNC(c3ccc(N4CCCCC4)cc3)C2)c1 (stereo not given) | µM | = | 24.9 |
| c1csc(C2=NNC(c3ccc(N4CCCCC4)cc3)C2)c1 (stereo not given) | µM | = | 26.8 |
| Cc1cc(C(=O)/C=C/c2ccc(N3CCCCC3)cc2)c(C)s1 | µM | = | 23.6 |
| O=C(/C=C/c1ccc(N2CCCCC2)cc1)c1ccc(I)s1 | µM | ≥ | 100 |
| O=C(/C=C/c1ccc(N2CCCCC2)cc1)c1sccc1Br | µM | = | 27.8 |
| Clc1ccc(C2=NNC(c3ccc(N4CCCCC4)cc3)C2)s1 (stereo not given) | µM | > | 100 |
| Cc1cn([C@H]2C[C@H](N=[N+]=[N-])[C@@H](CO)O2)c(=O)[nH]c1=O | µM | = | 0.026 |
| Cc1ccsc1C1=NNC(c2ccc(N3CCCCC3)cc2)C1 (stereo not given) | µM | = | 15.5 |
| O=C(/C=C/c1ccc(N2CCCCC2)cc1)c1ccsc1 | µM | ≥ | 100 |
